This collection of values is drawn from PubChem BioAssay AID1159580.

testName: chemical genetic growth profiling, strain panel (AID 1159580);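 further: tested at 20 µM; growth read once vehicle control cultures reached saturation at 30 °C; 1 = growth at the plate median or of vehicle wells; lower values mean less growth of the strain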
studyConditions: S. cerevisiae deletion strains, growth OD, locus YLR113W, strain HOG1, active compounds read low
The campaign covered roughly 5,500 compounds. About 2,000 (36%) were called active. Not shown: some 18% with an inconclusive outcome. This is one part of the list.
propertyLabel: normalized growth
Enter the number alone.

Record N[C@@H](C(=O)N[C@@H]1C(=O)N2C(C(=O)O)=C(Cl)CS[C@H]12)c1ccccc1 . Reported normalized growth: 1

Record O=C(O)[C@H]1/C(=C/CO)O[C@@H]2CC(=O)N21 . Reported normalized growth: 0.974

Record COc1cc(C2CC(=S)Nc3ccccc3S2)cc(OC)c1OC (centres undefined) . Reported normalized growth: 1

Record CN1CCN(C2=Nc3cc(Cl)ccc3Nc3ccccc32)CC1 . Reported normalized growth: 1.01

====

Recorded normalized growth by entry
testName: chemical genetic growth profiling, strain panel (AID 1159580);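 further: tested at 20 µM; growth read once vehicle control cultures reached saturation at 30 °C; 1 = growth at the plate median or of vehicle wells; lower values mean less growth of the strain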
studyConditions: S. cerevisiae deletion strains, growth OD, locus YIL073C, strain SPO22, active compounds read low
In all, about 5,500 compounds went through this assay and about 2,000 (36%) were called active. Roughly 18% stayed inconclusive and do not appear here. The list shows a part of the results.
Enter the number alone.

Known results for compounds:
COc1cc(O)c2c(c1)C(=O)c1cc(C)cc(O)c1C2=O	0.991
C[C@]12[C@H](O)CC3C(CC[C@@H]4C[C@@H](O)CC[C@]34C)[C@@]1(O)CC[C@@H]2C1=CC(=O)OC1 (some centres undefined)	1
Cc1c(NC(C)C)c(=O)n(-c2ccccc2)n1C	1

Record COc1cc2c(cc1OC)C(C)NCC2 (centres undefined) . Reported normalized growth: 1.02

====

testName: chemical genetic growth profiling, strain panel (AID 1159580);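 further: tested at 20 µM; growth read once vehicle control cultures reached saturation at 30 °C; 1 = growth at the plate median or of vehicle wells; lower values mean less growth of the strain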
studyConditions: S. cerevisiae deletion strains, growth OD, locus YER002W, strain NOP16, active compounds read low
The whole screen tested about 5,500 compounds, of which about 2,000 (36%) were called active. Not shown: some 18% with an inconclusive outcome. The list shows a part of the results.
Recorded normalized growth by entry

Known results for molecules:
Cn1c(=O)c2c(nc(/C=C/c3cccc(Cl)c3)n2C)n(C)c1=O	1.01 (inactive)
CC1=C(C)C(=O)C(CCCCC#CCCCC#CCO)=C(C)C1=O	0.996 (inactive)
NC(=O)CN1CC(O)CC1=O (stereo unspecified)	1.01 (inactive)
Cc1ccc2c(c1)C(N1CCN(C)CC1)=Nc1cccnc1N2	1 (inactive)
O=C(CCc1ccc(O)cc1)c1c(O)cc(O)cc1O	1.02 (inactive)

Attention now shifts to the item below.
Record CN1CCN(C2=Nc3cc(Cl)ccc3Nc3ccccc32)CC1 . Reported normalized growth: 0.997 (inactive)

====

Recorded normalized growth by entry
testName: chemical genetic growth profiling, strain panel (AID 1159580);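 further: tested at 20 µM; growth read once vehicle control cultures reached saturation at 30 °C; 1 = growth at the plate median or of vehicle wells; lower values mean less growth of the strain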
studyConditions: S. cerevisiae deletion strains, growth OD, locus YML016C, strain PPZ1, active compounds read low
The campaign covered roughly 5,500 compounds. About 2,000 (36%) were called active. About 18% were inconclusive and are not listed. The list shows a part of the results.
Enter the number alone.

CN1CCC[C@H]1c1cccnc1	0.99
C[N+]1(C)CCCC(OC(=O)C(O)(c2ccccc2)c2ccccc2)C1 (configuration not stated)	1
COC(=O)C[C@H]1C(C)(C)[C@H](O)[C@@H]2CC3=C4CC(O)O[C@@H](c5ccoc5)[C@]4(C)CCC3[C@@]1(C)C2=O (some centres not stated)	0.977
O=C1c2ccccc2C(=O)c2ccccc21	0.992
CC(=O)OC1CCC2(O)CC1(C)CCC1C2CC1(C)C (configuration not stated)	0.974
Cc1cc(O)c2c(c1)C(=O)c1cccc(O)c1C2=O	0.997
COc1ccccc1OCC(O)COC(N)=O (configuration not stated)	1
O=C(Nc1ccc([N+](=O)[O-])cc1Cl)c1cc(Cl)ccc1O	0.975
CC(=O)OC1CCC23CC1(C)CCC2C(C)(C)CC3OC(C)=O (configuration not stated)	1.02
CNC(=O)N(C)c1nnc(C(C)(C)C)s1	1.01

Record C=C(C)C1Cc2c(ccc(C(=O)O)c2O)O1 (configuration not stated) . Reported normalized growth: 0.987

Record COC(=O)C(O)[C@H]1C(C)(C)[C@@H](OC(C)=O)[C@@H]2CC3=C4CC(=O)O[C@@H](c5ccoc5)[C@]4(C)CCC3[C@@]1(C)C2=O (some centres not stated) . Reported normalized growth: 0.994

Record CC(=O)O[C@@H]1C2CC[C@@H]3C1(C[C@@H](O)[C@@]1(O)[C@@H](C[C@H](O)C1(C)C)[C@]3(C)O)C[C@@]2(C)O (some centres not stated) . Reported normalized growth: 0.99

Record CCCC(=O)Nc1ccc(OCC(O)CNC(C)C)c(C(C)=O)c1 (configuration not stated) . Reported normalized growth: 1.01

Record CNC(=O)Oc1cccc2c1OC(C)(C)C2 . Reported normalized growth: 1

Record CC(C)N=C(N)N=C(N)Nc1ccc(Cl)cc1 . Reported normalized growth: 1.01

Record CN(C)CCC[C@@]1(c2ccc(F)cc2)OCc2cc(C#N)ccc21 . Reported normalized growth: 1.02
